- experimental-system: human CLDN18.2 (human, UniProt P56856)
- procedure-details: ELISA
reported-metric: EC50 (pM)
Answer format: numeric, pM implied, no suffix.

Completed entries (count: 3):
Ab7 (antibody, V domains shown) VH: QVQLVQSGAEVKKPGSSVKVSCKASGYAFSNYLIEWVKQAPGQGLEWIGLINPGSGGTNYNEKFKGKATITADKSTSTAYMELSSLRSEDTAVYYCARVYYGNSFAYWGQGTLVTVSS VL: DIVMTQSPDSLAVSLGERATISCKSSQSLLNSGNQKNYLTWYQQKPGQPPKLLIYWASTRESGVPDRFSGSGSGTHFTLTISSLQAEDVAVYYCQNDYFYPFTFGQGTKLEIKR :: 282
Ab10 (antibody) chain 1: QVQLVQSGAEVKKPGSSVKVSCKASGYAFSNYLIEWVKQAPGQGLEWIGLINPGSGGTNYNEKFKGKATITADKSTSTAYMELSSLRSEDTAVYYCARVYYGNSFAYWGQGTLVTVSS chain 2: DIVMTQSPDSLAVSLGERATISCKSSQSLLNSGNQKNYLTWYQQKPGQPPKLLIYWASTRESGVPDRFSGSGSGTDFTLTISSLQAEDVAVYYCQNDYFYPFTFGQGTKLEIK :: 117
Ab8 (antibody, V domains shown) VH: QVQLVQSGAEVKKPGSSVKVSCKASGYAFSNYLIEWVKQAPGQGLEWIGLINPGSGGTNYNEKFKGKATLTADKSTSTAYMELSSLRSEDTAVYFCARVYYGNSFAYWGQGTLVTVSS VL: DIVMTQSPDSLAVSLGERATISCKSSQSLLNSGNQKNYLTWYQQKPGQPPKLLIYWASTRESGVPDRFSGSGSGTDFTLTISSLQAEDVAVYYCQNDYFYPFTFGQGTKLEIKR :: 227

Look up EC50 of Ab9 (antibody, V domains shown) VH: QVQLVQSGAEVKKPGSSVKVSCKASGYAFSNYLIEWVKQAPGQGLEWIGLINPGSGGTNYNEKFKGKATLTADKSTSTAYMELSSLRSEDTAVYFCARVYYGNSFAYWGQGTLVTVSS VL: DIVMTQSPDSLAVSLGERATISCKSSQSLLNSGNQKNYLTWYQQKPGQPPKLLIYWASTRESGVPDRFSGSGSGTHFTLTISSLQAEDVAVYYCQNDYFYPFTFGQGTKLEIKR and report it.
339
